Test system: L1210 leukemia ip in BDF1 mice, survival T/C
Experiment: NCI In Vivo Anticancer Drug Screen. Data for tumor model L1210 Leukemia (intraperitoneal) in B6D2F1 (BDF1) mice
Conditions: endpoint: mean survival time; dose: 100.0 mg/kg/injection; schedule: Q04DX003 (ip); vehicle: Klucel (hydroxypropylcellulose) (HPC); higher = longer survival
Toxic doses and inconclusive results are not listed.
Catalogue of T/C readings, one per entry.
parameter measured: T/C

| compound | endpoint value |
| --- | --- |
| CC(=O)OC1CCC2(C)C(=CCC3C2CCC2(C)C3CC(Br)C2C(C)=O)C1 (configuration not stated) | 107 % of control |
| Cc1cc(C)c(N(C)C(=O)CCC(=O)O)c(Br)c1 | 101 % of control |
| O=C(Cl)/C=C/c1c(Cl)cccc1Cl | 103 % of control |
| O=[N+]([O-])c1cc2c(cc1Br)nc(Cl)c1cc(Br)ccc12 | 104 % of control |
| CCOC=NC1=C(Cl)C(=O)C(N=COCC)=C(Cl)C1=O | 92 % of control |
| COc1ccc(C(C(N)=O)N2CCOCC2)cc1 (configuration not stated) | 95 % of control |
| CC(C)(C)OC(=O)C1(C(=O)OC(C)(C)C)C2CCCCC21 (configuration not stated) | 101 % of control |
| O=C(NCC(O)CCl)c1ccc([N+](=O)[O-])cc1 (configuration not stated) | 97 % of control |
| O=[N+]([O-])c1ccc2c3c(ccc(Br)c13)CC2 | 106 % of control |
| CCC(C#N)c1ccccc1 (configuration not stated) | 110 % of control |
| COc1ccc([N+](=O)[O-])cc1NC(=O)Nc1cc(C)on1 | 92 % of control |
| Clc1ccc(N=Cc2ccc(C=Nc3ccc(Cl)c(Cl)c3)cc2)cc1Cl | 97 % of control |

====

System: L1210 leukemia ip in BDF1 mice, survival T/C
Experiment: NCI In Vivo Anticancer Drug Screen. Data for tumor model L1210 Leukemia (intraperitoneal) in B6D2F1 (BDF1) mice
Conditions: endpoint: mean survival time; dose: 50.0 mg/kg/injection; schedule: Q01DX001 (ip); vehicle: saline; higher = longer survival
Method: The antitumor activity of compounds was measured in mice bearing transplantable tumors. Survival or tumor size were measured and the results are expressed as the measurement made in the treated group (T) divided by the measurement made in the vehicle treated control group (C). The tumor model used in this assay is L1210 Leukemia (intraperitoneal) in B6D2F1 (BDF1) mice
Inconclusive results and toxic doses are left out.
parameter measured: T/C

| compound | parameter measured | endpoint value |
| --- | --- | --- |
| Cc1ccc(S(=O)(=O)OCCN(CCOS(=O)(=O)c2ccc(C)cc2)c2ccc(F)cc2)cc1 | T/C | 97 % of control |
| C=CC1CN2CCC1CC2C(=O)c1ccnc2ccccc12 (centres undefined) | T/C | 101 % of control |
| CS(=O)(=O)OCCN(CCOS(C)(=O)=O)c1ccc([N+](=O)[O-])c(C(F)(F)F)c1 | T/C | 94 % of control |
| CC(C)(C)C(=O)Nc1ccc(S(=O)(=O)c2ccc(NC(=O)C(C)(C)C)cc2)cc1 | T/C | 95 % of control |
| Nc1nc(=S)c2ncn(C3OC(CO)C(O)C3O)c2[nH]1 (centres undefined) | T/C | 96 % of control |
| c1ccc(-c2csc3[n+]2CCN3)cc1 | T/C | 99 % of control |
| C=C1CC[N+]2(CC(=O)c3ccc(Br)cc3)CCCC12 (centres undefined) | T/C | 101 % of control |
| CCCC1C2C(=O)N(c3ccccc3)C(=O)C2ON1c1ccccc1 (centres undefined) | T/C | 104 % of control |
| CC1(CNC(=O)C(=O)NCC2(C)CO2)CO1 (centres undefined) | T/C | 101 % of control |
| N#CCCOCC(COCCC#N)OCCC#N | T/C | 106 % of control |
| ClCCCSCCCCl | T/C | 103 % of control |
| CC1CCCCN1C(CC(=O)c1ccccc1)C(=O)c1ccccc1 (centres undefined) | T/C | 97 % of control |
| CCC1C(=O)OCc2c1cc1n(c2=O)CCC1 (centres undefined) | T/C | 104 % of control |
| CCCCCCCCCCCCCCC[As](=O)(O)CCCCCCCCCCCCCCC | T/C | 97 % of control |

====

Tested on: L1210 leukemia ip in BDF1 mice, survival T/C
Assay: NCI In Vivo Anticancer Drug Screen. Data for tumor model L1210 Leukemia (intraperitoneal) in B6D2F1 (BDF1) mice
Details: endpoint: mean survival time; dose: 400.0 mg/kg/injection; schedule: Q01DX009 (ip); vehicle: saline; higher = longer survival
Inconclusive results and toxic doses are left out.
Catalogue of T/C readings, one per entry.
parameter measured: T/C

| compound | target entity | endpoint value |
| --- | --- | --- |
| COCCNP(=O)(OC(C)C)OC(C)C | L1210 leukemia ip in BDF1 mice, survival T/C | 94 % of control |
| OC1OCC(Cc2ccc3c(c2)OCO3)C1Cc1ccc2c(c1)OCO2 (centres undefined) | L1210 leukemia ip in BDF1 mice, survival T/C | 88 % of control |
| O=C(O)CC(C(=O)O)C1C=CCC1 (centres undefined) | L1210 leukemia ip in BDF1 mice, survival T/C | 101 % of control |
| CC#CCOCC1CNC(=O)O1 (centres undefined) | L1210 leukemia ip in BDF1 mice, survival T/C | 104 % of control |
| C1COC(C2OCCO2)C1 (centres undefined) | L1210 leukemia ip in BDF1 mice, survival T/C | 95 % of control |
| CCOC(=O)CCN1CCOCC1 | L1210 leukemia ip in BDF1 mice, survival T/C | 111 % of control |
| [O-][n+]1ccc(Cl)cc1 | L1210 leukemia ip in BDF1 mice, survival T/C | 94 % of control |
| O=S(=O)(CC(Cl)c1ccccc1)c1ccccc1 (centres undefined) | L1210 leukemia ip in BDF1 mice, survival T/C | 89 % of control |
| CCCCC(CC)COC(OCC(CC)CCCC)C(OCC(CC)CCCC)OCC(CC)CCCC (centres undefined) | L1210 leukemia ip in BDF1 mice, survival T/C | 113 % of control |
| CC1CCOC(C)O1 (centres undefined) | L1210 leukemia ip in BDF1 mice, survival T/C | 96 % of control |
| OCC1(O)OCC(O)C(O)C1O (centres undefined) | L1210 leukemia ip in BDF1 mice, survival T/C | 90 % of control |
| c1ccc(Nc2ccc(Nc3ccccc3)cc2)cc1 | L1210 leukemia ip in BDF1 mice, survival T/C | 110 % of control |
| N#C/C(=N/O)c1ccccn1 | L1210 leukemia ip in BDF1 mice, survival T/C | 92 % of control |
| O=C(O)C12CCC(CC1)C2 | L1210 leukemia ip in BDF1 mice, survival T/C | 96 % of control |

====

System: L1210 leukemia ip in BDF1 mice, survival T/C
Experiment: NCI In Vivo Anticancer Drug Screen. Data for tumor model L1210 Leukemia (intraperitoneal) in B6D2F1 (BDF1) mice
Settings: endpoint: mean survival time; dose: 100.0 mg/kg/injection; schedule: Q04DX002 (ip); vehicle: gum acacia; higher = longer survival
Inconclusive results and toxic doses are left out.
Catalogue of T/C readings, one per entry.
parameter measured: T/C

| smiles code | endpoint value |
| --- | --- |
| CCOC(=O)c1ccc(Nc2nnc(-c3ccccc3Cl)s2)cc1 | 88 % of control |
| O=[N+]([O-])NC(=NCCNc1ccccc1)Nc1ccccc1 | 98 % of control |
| Nc1cc(Cl)ccc1Cl | 91 % of control |
| N=N/C(=C\c1c(O)[nH]c2ccccc12)c1ccccc1 | 92 % of control |
| O=C(Cl)COc1cc(Cl)c(Cl)cc1Cl | 106 % of control |

====

System: L1210 leukemia ip in BDF1 mice, survival T/C
Test: NCI In Vivo Anticancer Drug Screen. Data for tumor model L1210 Leukemia (intraperitoneal) in B6D2F1 (BDF1) mice
Details: endpoint: mean survival time; dose: 100.0 mg/kg/injection; schedule: Q01DX009 (ip); vehicle: saline with Tween-80; higher = longer survival
Toxic doses and inconclusive results are not listed.

| molecule | target entity | T/C |
| --- | --- | --- |
| N=C(N)S(=O)O | L1210 leukemia ip in BDF1 mice, survival T/C | 104 % of control |
| CC1C(=O)C2(C)C3(C)C(=O)C(C)(C(c4ccccc4)=C3c3ccccc3)C2(c2ccccc2)C1c1ccccc1 (stereo not given) (tested in a mixture with another compound) | L1210 leukemia ip in BDF1 mice, survival T/C | 95 % of control |
| CCOC(=O)c1ccc(NC(=S)NC(=O)/C=C/c2ccccc2)cc1 | L1210 leukemia ip in BDF1 mice, survival T/C | 92 % of control |
| CC(O)c1cccc([N+](=O)[O-])c1 (stereo not given) | L1210 leukemia ip in BDF1 mice, survival T/C | 104 % of control |
| CCN(C(=O)Nc1cccc(Cl)c1)c1ccccc1 | L1210 leukemia ip in BDF1 mice, survival T/C | 90 % of control |
